Tested on: human PBMCs
Test: Human PBMC cytokine response assay (IFN-γ and IFN-α in cell-free medium by ELISA), with or without cPLGA
Type: cell-based
Conditions: mean of donors 28185-28188; Table 15
measure: IFN-g (pg/ml) mean
Returns: string containing the numeric result and its unit.

substance | measure | result
5′-TCGTCGA-3′- C3-5′-ACGTTCG-3′-C3-5′-AGATGAT-3′ [Compound C-9] | IFN-g (pg/ml) mean | 80 pg/mL

## Input Provide the documented IFN-g (pg/ml) mean with human PBMCs as the system for (5′-TCGTCGA-3′-HEG)2-glycerol-HEG-5′-AACGTTC-3′ [Compound C-96]
## Output 98 pg/mL

## Input Provide the documented IFN-g (pg/ml) mean with human PBMCs as the system for (5′-TCGTCGA-3′)2-glycerol-5′-AACGTTC-3′ [Compound C-27]
## Output 19 pg/mL

## Input Provide the documented IFN-g (pg/ml) mean with human PBMCs as the system for 5′-TCGTCGA-3′-HEG-5′-ACGTTCG-3′-HEG-5′-AGATGAT-3′ [Compound C-8]
## Output 78 pg/mL

## Input Provide the documented IFN-g (pg/ml) mean with human PBMCs as the system for Starburst Dendrimer ® -(5′-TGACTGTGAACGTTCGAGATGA-3′)x (X range = 3-16) (SEQ ID NO: 2) (See Ex. 24) [Compound C-102]
## Output 77 pg/mL

## Input Provide the documented IFN-g (pg/ml) mean with human PBMCs as the system for 5′-TCGTCGA-3′-HEG-5′-TCGTCGA-3′-HEG-5′-TCGTCGA-3′ [Compound C-21]
## Output 103 pg/mL

----------
Tested on: human PBMCs
Assay: Human PBMC cytokine response assay (IFN-γ and IFN-α in cell-free medium by ELISA), with or without cPLGA;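 as to IFN-α (pg/ml) mean: 20 µg/mL compound for 24 hours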
Assay type: cell-based
Details: mean of donors 28057-28060; Table 16
Strand notation (5' to 3'): a small letter for the sugar, then the base; units joined by * are phosphorothioate-linked, units joined directly phosphodiester-linked; [ ] holds rarer units or linkages, { } end groups; capitals alone tell only the bases. d = 2'-deoxy (DNA)
measure: IFN-α (pg/ml) mean (pg/mL)
Write down the numeric answer in pg/mL and omit the unit.

substance | tgt | unit.tag | readout.number
5′-TCGTCG-3′-(TEG)8-5′-T-3′ [Compound C-15] | human PBMCs | pg/mL | 0
5′-TCGTCG-3′-(HEG)4-5′-T-3′ [Compound C-16] | human PBMCs | pg/mL | 0
5′-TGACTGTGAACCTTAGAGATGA-3′ (SEQ ID NO: 3) (dT*dG*dA*dC*dT*dG*dT*dG*dA*dA*dC*dC*dT*dT*dA*dG*dA*dG*dA*dT*dG*dA) [Compound P-7, negative control, reference compound] | human PBMCs | pg/mL | 0
5′-TCGTCG-3′-(HME)15-5′-T-3′ [Compound C-14] | human PBMCs | pg/mL | 0

Query substance follows.
## Input Give the measured IFN-α (pg/ml) mean of 5′-TCGTCG-3′-(C3)15-5′-T-3′ [Compound C-13] .
## Output 70

----------
Test system: human PBMCs
Assay: Human PBMC cytokine response assay (IFN-γ and IFN-α in cell-free medium by ELISA), with or without cPLGA
Format: cell-based
Details: Table 25; donor 28252
In this section we review reported IFN-g values for a set of substances.
Write down the numeric answer in pg/mL and omit the unit.

Reference set, count: 3
substance | tgt | measure | readout.number
5′-TCGACGT-3′-HEG-5′-TCGACGT-3′-HEG-5′-TCGACGT-3′ [Compound C-51] | human PBMCs | IFN-g | 164
5′-AGATGAT-3′ [Compound P-4, reference compound] | human PBMCs | IFN-g | 43
5′-ACGTTCG-3′ [Compound P-3, reference compound] | human PBMCs | IFN-g | 72

## Input Give the measured IFN-g of 5′-TCGTCG-3′ [Compound P-2, reference compound] .
## Output 53

## Input Give the measured IFN-g of (5′-TCGACGT-3′-HEG)2-glycerol-HEG-5′-TCGACGT-3′ [Compound C-101] .
## Output 180

----------
Test system: human PBMCs
Experiment: Human PBMC cytokine response assay (IFN-γ and IFN-α in cell-free medium by ELISA), with or without cPLGA
Assay type: cell-based
Conditions: Example 58; 20 ug/ml; mean of four individuals
In this section we review reported IFN-α mean values for a set of substances.
Returns: string containing the numeric result and its unit.

substance | result
(5′-TCGAACGTTCGA-3′ (SEQ ID NO: 155)-HEG)2-glycerol-HEG-5′-TCGAACGTTCGA-3′ (SEQ ID NO: 155) (three copies via HEG-glycerol branching, chemistry not fully specified) [Compound C-173] | 5701 pg/mL

## Input Provide the documented IFN-α mean with human PBMCs as the system for (5′-TCGAACGTTCGA-3′ (SEQ ID NO: 155)-HEG)3-trebler-HEG-5′-T-3′ (three copies HEG-trebler branched, HEG-T, chemistry not fully specified) [Compound C-175]
## Output 771 pg/mL

----------
Test system: human PBMCs
Test: Human PBMC cytokine response assay (IFN-γ and IFN-α in cell-free medium by ELISA), with or without cPLGA
Format: cell-based
Conditions: Table 13; donor 28157
measure: IFN-α (pg/mL)
Write down the numeric answer in pg/mL and omit the unit.

Reference set, count: 7
substance | unit.tag | IFN-α
5′-TCGTCGA-3′- C3-5′-ACGTTCG-3′-C3-5′-AGATGAT-3′ [Compound C-9] | pg/mL | 142
5′-ACGTTCG-3′-HEG-5′-TCGTCGA-3′-HEG-5′-AGATGAT-3′ [Compound C-57] | pg/mL | 52
5′-ACGTTCG-3′-HEG-5′-AGATGAT-3′-HEG-5′-TCGTCGA-3′ [Compound C-58] | pg/mL | 30
5′-TCGTCGA-3′-HEG-5′-ACGTTCG-3′-HEG-5′-AGATGAT-3′ [Compound C-8] | pg/mL | 755
5′-TCGTCGA-3′-HEG-5′-AGATGAT-3′-HEG-5′-ACGTTCG-3′ [Compound C-56] | pg/mL | 415
5′-TCCATTT-3′-HEG-5′-AACGTTC-3′-HEG-5′-TGACGTT-3′ [Compound C-61] | pg/mL | 0
5′-AGATGAT-3′-HEG-5′-ACGTTCG-3′-HEG-5′-TCGTCGA-3′ [Compound C-60] | pg/mL | 22

## Input Give the measured IFN-α of 5′-TCGTCGA-3′-HEG-5′-AACGTTC-3′-HEG-5′-AGATGAT-3′ [Compound C-54] .
## Output 96

----------
In this section we review reported IFN-α values for a set of substances.
Tested on: human PBMCs
Assay: Human PBMC cytokine response assay (IFN-γ and IFN-α in cell-free medium by ELISA), with or without cPLGA
Type: cell-based
Conditions: Example 58; 0.8 ug/ml; donor 2
Strand notation (5' to 3'): a small letter for the sugar, then the base; units joined by * are phosphorothioate-linked, units joined directly phosphodiester-linked; [ ] holds rarer units or linkages, { } end groups; capitals alone tell only the bases. d = 2'-deoxy (DNA)
Write down the numeric answer in pg/mL and omit the unit.

Reference set, count: 5
substance | measure | readout.number
(5′-TCGAACGTTCGA-3′ (SEQ ID NO: 155)-HEG)3-trebler-HEG-5′-T-3′ (three copies HEG-trebler branched, HEG-T, chemistry not fully specified) [Compound C-175] | IFN-α | 16605
(5′-TCGAACGTTCGA-3′ (SEQ ID NO: 155)-HEG)2-glycerol-HEG-5′-TCGAACGTTCGA-3′ (SEQ ID NO: 155) (three copies via HEG-glycerol branching, chemistry not fully specified) [Compound C-173] | IFN-α | 1293
5′-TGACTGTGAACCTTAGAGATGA-3′ (SEQ ID NO: 3) (dT*dG*dA*dC*dT*dG*dT*dG*dA*dA*dC*dC*dT*dT*dA*dG*dA*dG*dA*dT*dG*dA) [Compound P-7, negative control, reference compound] | IFN-α | 52
(5′-TAGTCAT-3′-HEG)2-glycerol-HEG-5′-AACCTTC-3′ [Compound M-3, reference compound] | IFN-α | 52
5′-TCGAACGTTCGA-3′ (SEQ ID NO: 155) (listed as DNA, chemistry not fully specified) [Compound P-17, reference compound] | IFN-α | 105

## Input Give the measured IFN-α of (5′-TCGACGT-3′-HEG)2-glycerol-HEG-5′-TCGACGT-3′ [Compound C-101] .
## Output 52

## Input Give the measured IFN-α of (5′-TCGAACGTTCGA-3′ (SEQ ID NO: 155)-HEG)2-glycerol-HEG-3′-AGCTTGCAAGCT-5′ (SEQ ID NO: 155) (DNA, all phosphorothioate, methylation of C not given here; Three DNA copies joined by HEG spacers and glycerol branching, one copy inverted) [Compound C-174] .
## Output 11198
